- study.target: Tumor necrosis factor receptor superfamily member 10B (Homo sapiens)
- protocol.details: caspase-8 TRAIL sensitization, hit retest, confirmation, cell-based, NB7+caspase-8, with/without TRAIL, luminescence panel (AID 651596)
- experimental.conditions: NB7 neuroblastoma + caspase-8, TRAIL sensitization, luminescence viability, with TRAIL, mean of runs, at 10 µM, stronger effect = higher value
Entries and their measured activity follow.

compound: Cc1ccc(C(=O)Nc2ccc3ccccc3n2)cc1
activity [%]: 58.6

compound: Cc1ccc(-c2cc(-c3ccccc3)no2)c(O)c1
activity [%]: 71.8

compound: Cc1nc2sc(-c3ccccc3)cc2c(=O)n1N
activity [%]: 59.7

compound: O=C(c1ccncc1)N(Cc1cc2ccccc2[nH]c1=O)C1CCCCC1
activity [%]: 72.5

compound: Nc1nnnn1/N=C/C(Br)=C/c1ccccc1
activity [%]: 68.6

compound: O=C(Nc1ccc(-c2cn3ccccc3n2)cc1)c1cccs1
activity [%]: 76.2

compound: COc1ccc(OC)c(S(=O)(=O)Nc2ccc(-c3ccc4nncn4n3)cc2)c1
activity [%]: 57.5

compound: Cc1cnc(NC(=O)c2ccccn2)s1
activity [%]: 63.5

compound: CCCCCCC[N+](CC)(CC)CCCCc1ccc(Cl)cc1
activity [%]: 43.9

compound: C=C(C)c1cc2c(ccc3ccc(=O)oc32)o1
activity [%]: 92.6

compound: CCCCCc1ccc(OCCCC[n+]2ccccc2)c(CCCCC)c1
activity [%]: 24.6

compound: CC(C)N(CC(=O)Nc1ccc(Cl)cc1C(F)(F)F)C(=O)CCl
activity [%]: 99.4

compound: Cc1ccnc(NC(=O)c2ccc(OCC3CCCO3)cc2)c1 (stereo not drawn)
activity [%]: 94.4

compound: COc1ccc(C2C(C(=O)N3CCN(c4ccccc4)CC3)c3ccccc3C(=O)N2C)cc1OC (stereo not drawn)
activity [%]: 71.8

compound: COc1ccccc1NC(CC(=O)c1ccccc1)C(=O)OCC(=O)c1ccc(C)c(C)c1 (stereo not drawn)
activity [%]: 73.5

compound: COCCN(C(=O)COC(=O)c1c(NC(C)=O)sc(C)c1C)c1c(N)n(Cc2ccccc2)c(=O)[nH]c1=O
activity [%]: 58.8

compound: COc1cccc(/C=C/c2ccc3ccccc3n2)c1OC(C)=O
activity [%]: 67.2

compound: COc1ccc(C(=O)N/N=C(/C)c2cccc(NC(=O)c3ccccc3F)c2)cc1
activity [%]: 53.5

compound: COc1ccc(/C=C(\C#N)C(=O)OCC(=O)Nc2ccc(-c3nc4ccc(C)cc4s3)cc2)cc1
activity [%]: 42.9

compound: CCOc1ccc2cc(C#N)c(SCC(=O)OC)nc2c1
activity [%]: 57.9

compound: O=C(N/N=C/c1cc(Br)cs1)c1ccc2c(c1)OCCO2
activity [%]: 78.8

compound: C(/C=C/c1ccccn1)=C\c1ccccc1
activity [%]: 7.58

compound: COc1cc2nc(N3CCN(c4cc(C)ccc4C)CC3)nc(N)c2cc1OC
activity [%]: 56.7

* * *

Listed here: items and their measured activity, % sensitization.
- protocol.details: TRAIL sensitizers in caspase-8 expressing neuroblastoma cells, dose response, NB7 cells plus caspase-8, luminescence, panel (AID 652002)
- experimental.conditions: NB7 neuroblastoma +caspase-8, no TRAIL, compound-alone cytotoxicity counter-screen, luminescence viability, NB7+Caspase-8, run 2; at 12.5 µM (top of the series) unless noted

item.smiles: COC(=O)CSc1nc2cc(C)ccc2cc1C#N
activity, % sensitization, %: 24.1
--
item.smiles: CCN(CC)S(=O)(=O)c1ccc(C(=O)OCC(=O)Nc2ccc(-c3nc4ccc(C)cc4s3)cc2)cc1
activity, % sensitization, %: -8.61
--
item.smiles: Cc1cc(-c2ccccc2)nc(Nc2nc3c(C)cccc3c(=O)[nH]2)n1
activity, % sensitization, %: 5.22
--
item.smiles: O=C(Oc1c(CN2CCOCC2)cc(Cl)c2cccnc12)c1cccs1
activity, % sensitization, %: -4.1
--
item.smiles: CC(C)C(=O)Nc1ccc(NC(=O)c2ccccn2)cn1
activity, % sensitization, %: 37.8
--
item.smiles: O=C(NNC(=O)c1cc(OCC(F)(F)F)ccc1OCC(F)(F)F)c1ccc(Cl)c(Cl)c1
activity, % sensitization, %: 0.592
--
item.smiles: COc1ccc(-c2nnc(SCC(=O)c3[nH]c(C)c(C(C)=O)c3C)o2)cc1
activity, % sensitization, %: -16.4
--
item.smiles: Cc1cccc(CC(=O)Nc2cc(C)c3c(=O)oc4ccccc4c3n2)c1
activity, % sensitization, %: 0.373
--
item.smiles: Cn1c(=O)c2c(SCC(=O)Nc3ccccc3F)nc(C3CC3)nc2n(C)c1=O
activity, % sensitization, %: -25.4
--
item.smiles: O=C(Nc1cnc2ccccn2c1=O)c1ccc(Cl)cc1Cl
activity, % sensitization, %: -6.53

* * *

- study.target: Tumor necrosis factor receptor superfamily member 10B (Homo sapiens) (UniProt O14763)
- Sequence (O14763 whole entry, looked up): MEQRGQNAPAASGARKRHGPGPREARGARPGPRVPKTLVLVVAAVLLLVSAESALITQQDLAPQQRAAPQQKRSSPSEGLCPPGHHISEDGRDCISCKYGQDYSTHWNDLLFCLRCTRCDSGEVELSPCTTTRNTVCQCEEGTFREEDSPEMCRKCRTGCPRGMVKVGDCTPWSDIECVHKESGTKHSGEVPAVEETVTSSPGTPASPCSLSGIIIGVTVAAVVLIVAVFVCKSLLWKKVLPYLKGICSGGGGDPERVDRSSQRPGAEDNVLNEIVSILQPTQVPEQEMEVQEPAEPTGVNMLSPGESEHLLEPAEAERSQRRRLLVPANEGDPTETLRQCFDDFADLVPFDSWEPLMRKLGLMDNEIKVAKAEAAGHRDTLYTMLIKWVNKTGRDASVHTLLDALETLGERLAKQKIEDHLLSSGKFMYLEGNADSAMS
- protocol.details: caspase-8 TRAIL sensitization, hit retest, confirmation, cell-based, NB7+caspase-8, with/without TRAIL, luminescence panel (AID 651596)
- experimental.conditions: NB7 neuroblastoma + caspase-8, TRAIL sensitization, luminescence viability, with TRAIL, mean of runs, at 10 µM, stronger effect = higher value
Mark label 1 only for activity values smaller than 60%; exact matches and larger values are label 0.

compound: Cc1csc(NC(=S)NC(=O)c2ccccc2)n1
answer.label: label 0

compound: O=C(N/N=C/c1cccnc1)c1ccc2c(c1)OCCO2
answer.label: label 0

compound: O=C(Nc1ccc2c(c1)OCO2)N1CCN(Cc2ccco2)CC1
answer.label: label 0

compound: COc1ccc2cc(CNCCOCCOCCNCc3ccc4cc(OC)ccc4c3)ccc2c1
answer.label: label 1

compound: COc1ccccc1NC(=O)Nc1ccc2c(c1)nnn2C
answer.label: label 1

compound: Fc1cccc(/C=N/Nc2nncc3ccccc23)c1
answer.label: label 0

compound: O=c1cc(-c2c(F)c(F)c(F)c(F)c2F)oc2ccccc12
answer.label: label 0

compound: CCc1sc(C(=O)N2CCc3ccccc32)cc1C
answer.label: label 1

compound: O=C(Nc1ccc2c(c1)OCCO2)c1ccc2nccnc2c1
answer.label: label 1

compound: Cc1nc2c(ccc3nc(NC(=O)c4ccc5c(c4)OCCO5)sc32)s1
answer.label: label 0

compound: COc1ccc(C(C(=O)NC2CCCC2)N(C(=O)c2snc(-c3ccc(F)cc3)c2N)c2ccc(F)cc2)cc1 (stereo not given)
answer.label: label 1

compound: Cc1cccc(-n2ncc3c(NC(C)C)ncnc32)c1
answer.label: label 0

compound: C(=N\NC1=Nc2cccc3cccc1c23)/c1ccccc1
answer.label: label 1

compound: CC[C@@H](C)[C@H](CNC)NC[C@@H](Cc1cccc2ccccc12)NCCc1cccc(C(F)(F)F)c1
answer.label: label 0

compound: C/C(=N\Nc1cccc2cccnc12)c1ccccn1
answer.label: label 0

compound: Cc1ccc(C(=O)Nc2nc3ccccc3c(=O)s2)cc1
answer.label: label 0

compound: O=C(CNC(=O)c1ccccc1F)N/N=C/c1cc(Br)ccc1OC(=O)/C=C/c1ccco1
answer.label: label 1

compound: Cn1c(=N)n(CC(=O)c2ccc(F)cc2)c2ccccc21
answer.label: label 0

compound: Nc1nn2cc(-c3ccc(Br)cc3)nc2c2ccccc12
answer.label: label 1

compound: CCCCCC(=O)N1C[C@H](n2cc(COC(=O)c3ccccc3)nn2)[C@@H](O)C[C@@H]1c1ccc(Cl)cc1
answer.label: label 0

compound: CC(/C=N/NC(=O)c1cccs1)=C\c1ccccc1
answer.label: label 0

compound: Cc1ccc2nc(-c3cccc(N)c3)[nH]c2c1
answer.label: label 0

compound: O=C(Nc1ccccc1)c1cc(C2CCCN(C(=O)C3CC3)C2)on1 (stereo not given)
answer.label: label 1

compound: CCOC(=O)N1CCN(C(=O)CSCC(=O)Nc2nc(-c3ccc(-c4ccccc4)cc3)cs2)CC1
answer.label: label 0

compound: CC(=O)Nc1ccc2nc(-c3ccccc3)cn2c1
answer.label: label 1

compound: O=C(N/N=C/c1cc(O)ccc1[N+](=O)[O-])c1ccc2c(c1)OCCO2
answer.label: label 0

compound: COc1ccc(C(=O)/C=C/Nc2cc(C)ccn2)cc1
answer.label: label 0

compound: CC(=O)Nc1sc2c(c1-c1nc3ccccc3s1)CN(C(C)C)CC2
answer.label: label 1

compound: COc1ccc(CC(N)c2csc(NC(=O)Nc3ccc(C(C)C)cc3)n2)cc1 (stereo not given)
answer.label: label 0

compound: CCOC(=O)Cc1csc(NC(=O)c2cc3c(s2)CCCC3)n1
answer.label: label 1

compound: C=C1C(=O)c2sccc2C(c2ccc(OC)c(OC)c2)C1COC(C)=O (stereo not given)
answer.label: label 0

compound: COc1ccc(-c2cn3ccc(C)cc3n2)cc1
answer.label: label 0

compound: COc1ccc(C2CC(c3ccc(Br)cc3)=NN2C(=O)CSC2=NN3CCCC(=O)N=C3S2)cc1 (stereo not given)
answer.label: label 0

compound: CCOc1cc(/C=C\[N+](=O)[O-])ccc1OCC(=O)Nc1ccccc1C
answer.label: label 0

compound: COc1ccc2c(n1)Sc1nc3ccccc3nc1N2
answer.label: label 1

compound: CN(C(=O)c1ccc(NC(=O)Cc2cccc(NC(=O)C3CCCN(S(=O)(=O)c4cccc([N+](=O)[O-])c4)C3)c2)cc1)C1CC1 (stereo not given)
answer.label: label 1

compound: CC(C)Sc1cc(Cl)nc(NC(=O)Nc2ccccc2)n1
answer.label: label 0

compound: CC(C)NC(=O)c1ccc2c3n(nc2c1)-c1ccccc1CO3
answer.label: label 0

compound: O=C(Nc1ccc(NC(=O)C2CC2)cc1)c1ccco1
answer.label: label 1
